METHOD: Plasma concentration in rats after subcutaneous administration (HPLC)
ASSAY_SETUP: rat, plasma, sc, 5 mg/kg
Structures can show the parent of a compound that is named as a salt.
VALUE_KIND: concentration at 1.5 h (ng/mL)
# value in ng/mL; strip the unit string

Example cases with answers are listed next.
{"columns": ["COMPOUND", "UNIT_NAME", "concentration at 1.5 h"],
 "data": [
  ["NCc1cccc(CC(NS(=O)(=O)c2ccc3ccccc3c2)C(=O)N2CCC(C(=O)O)CC2)c1 (racemic)", "ng/mL", 629],
  ["N=C(N)c1cccc(CC(NS(=O)(=O)c2ccc3ccccc3c2)C(=O)N2CCCCC2C(=O)O)c1 (racemic)", "ng/mL", 467],
  ["N=C(N)c1cccc(CC(NS(=O)(=O)c2ccc3ccccc3c2)C(=O)N2CCC(C(=O)O)CC2)c1 (racemic)", "ng/mL", 913],
  ["N=C(N)c1cccc(C[C@H](NS(=O)(=O)c2ccc3ccccc3c2)C(=O)N2CCC[C@@H]2C(=O)O)c1 [Compound 123, hydrochloride]", "ng/mL", 1780],
  ["N=C(NO)c1cccc(CC(NS(=O)(=O)c2ccc3ccccc3c2)C(=O)N2Cc3ccccc3CC2C(=O)O)c1 (racemic) [Compound 190, hydroiodide]", "ng/mL", 354]
]}

Next up:
Which measured concentration at 1.5 h value corresponds to N=C(N)c1cccc(CC(NS(=O)(=O)c2ccc3ccccc3c2)C(=O)N2Cc3ccccc3CC2C(=O)O)c1 (racemic) ?
92
